# assayedSystem: human GPR120 (Homo sapiens, UniProt Q5NUL3)
# Construct: Flag (DYKDDDDK) (N); host or cells: HEK293 cells co-expressing Gqi5
# Sequence (Q5NUL3 whole entry): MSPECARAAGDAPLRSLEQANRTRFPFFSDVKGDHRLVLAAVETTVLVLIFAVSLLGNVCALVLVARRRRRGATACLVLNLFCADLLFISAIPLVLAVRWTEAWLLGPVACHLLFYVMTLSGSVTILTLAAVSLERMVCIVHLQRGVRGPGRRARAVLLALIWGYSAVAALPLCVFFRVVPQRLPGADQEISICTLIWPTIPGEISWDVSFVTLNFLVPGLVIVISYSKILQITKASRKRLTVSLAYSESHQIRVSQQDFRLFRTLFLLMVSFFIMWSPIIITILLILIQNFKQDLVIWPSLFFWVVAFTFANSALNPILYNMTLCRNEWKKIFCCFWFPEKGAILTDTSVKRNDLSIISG
# assayMethodText: Intracellular Ca2+ assay (FLIPR Calcium 4, Flexstation) in human GPR120 stable cell line
# Type: cell-based
# testParameters: % activity at 2.5 μM compared to the maximal activity of the compound of Example 25 at 2.5 μM; HEK293 cells co-expressing Gqi5
Measured % Activity (Ex. 25 Reference Compound), listed per entry.
measuredProperty: % Activity (Ex. 25 Reference Compound)

compoundString | resultValue
CCc1c(CCC(=O)O)ccc(OCc2cc(F)cc3c2OC(C)(C)C3)c1F | 144.23%
[2H]C([2H])(C(=O)O)C([2H])([2H])c1ccc(OCc2cc(Cl)cc3c2OC(C)(C)C3)c(F)c1 | 159.62%
[2H]C([2H])(Oc1ccc(CCC(=O)O)c(CC)c1F)c1cc(F)cc2c1OC(C)(C)C2 | 119.11%

The reported numbers originate from patent US8598374B2.
